# credit: paper PMC9696794

Test system: E. coli MC4100 (wild type, WT)
procedure-summary: microbe, parasite or virus in culture
condition-parameters: Escherichia coli, read-out: MIC E. coli MC4100 (WT)
readout-name: MIC (µg/mL)

molecule | numeric-value
[H]/N=C(\N/C(=N/[H])NCCCCCCNC(=N)NC(=N)Nc1ccc(Cl)cc1)Nc1ccc(Cl)cc1 [Chlorhexidine, reference compound] | 0.3
CN[C@H](CC(C)C)C(=O)N[C@H]1C(=O)N[C@@H](CC(N)=O)C(=O)N[C@H]2C(=O)N[C@H]3C(=O)N[C@H](C(=O)N[C@H](C(=O)O)c4cc(O)cc(O)c4-c4cc3ccc4O)[C@H](O)c3ccc(c(Cl)c3)Oc3cc2cc(c3O[C@@H]2O[C@H](CO)[C@@H](O)[C@H](O)[C@H]2O[C@H]2C[C@](C)(N)[C@H](O)[C@H](C)O2)Oc2ccc(cc2Cl)[C@H]1O [Vancomycin, reference compound] | 64
CC1(C)S[C@@H]2[C@H](NC(=O)[C@H](N)c3ccccc3)C(=O)N2[C@H]1C(=O)O [Ampicillin, reference compound] | 8
O=C(N[C@H](CO)[C@H](O)c1ccc([N+](=O)[O-])cc1)C(Cl)Cl [Chloramphenicol, reference compound] | 12.5
